log10 IC50 reference
- tested_on: Human immunodeficiency virus type 1 protease (Human immunodeficiency virus 1, UniProt Q72874)
- assay: Compound was evaluated for the inhibition of HIV-1 protease
Please note: log10 values; quantity IC50; unit nM.

Reference set (9 entries):
compound=CC(C)(C)OC(=O)N[C@@H](Cc1ccc(O)cc1)C(=O)N1CCC(=O)[C@H]1Sc1ccccc1 measure_name="log10 IC50" assay_result=1.41
compound=CC(C)(C)OC(=O)N[C@@H](Cc1ccc(OCc2ccccc2)cc1)C(=O)N1CCC(=O)[C@@H]1Sc1ccccc1 measure_name="log10 IC50" assay_result=1.30
compound=CC(C)(C)OC(=O)N[C@@H](Cc1ccc(O)cc1)C(=O)N1CCC(=O)[C@@H]1Sc1ccccc1 measure_name="log10 IC50" assay_result=1.40
compound=CC(C)(C)OC(=O)N[C@@H](Cc1ccccc1)C(=O)N1CCC(=O)[C@@H]1Sc1ccccc1 measure_name="log10 IC50" assay_result=3.00
compound=CC(C)(C)OC(=O)N[C@@H](Cc1ccccc1)C(=O)N1CCC(=O)[C@H]1Sc1ccccc1 measure_name="log10 IC50" assay_result=0.90
compound=COc1ccc(C[C@H](NC(=O)OC(C)(C)C)C(=O)N2CCC(=O)[C@H]2Sc2ccccc2)cc1 measure_name="log10 IC50" assay_result=4.00
compound="O=C(N[C@@H](Cc1ccccc1)C(=O)N1CCC(=O)C1Sc1ccccc1)c1cccnc1 (stereo not given in full)" measure_name="log10 IC50" assay_result=2.00
compound=CC(C)(C)OC(=O)N[C@@H](Cc1ccc(OCc2ccccc2)cc1)C(=O)N1CCC(=O)[C@H]1Sc1ccccc1 measure_name="log10 IC50" assay_result=1.30
compound=COc1ccc(C[C@H](NC(=O)OC(C)(C)C)C(=O)N2CCC(=O)[C@@H]2Sc2ccccc2)cc1 measure_name="log10 IC50" assay_result=4.00

Which measured log10 IC50 value corresponds to O=C(N[C@@H](Cc1ccccc1)C(=O)N1CCC(=O)C1Sc1ccccc1)c1ccc2ccccc2n1 (stereo not given in full) ? 3.70
